Target: human SGLT1 (Homo sapiens)
Construct: expressed in transfected cells
Sequence (P13866 whole entry): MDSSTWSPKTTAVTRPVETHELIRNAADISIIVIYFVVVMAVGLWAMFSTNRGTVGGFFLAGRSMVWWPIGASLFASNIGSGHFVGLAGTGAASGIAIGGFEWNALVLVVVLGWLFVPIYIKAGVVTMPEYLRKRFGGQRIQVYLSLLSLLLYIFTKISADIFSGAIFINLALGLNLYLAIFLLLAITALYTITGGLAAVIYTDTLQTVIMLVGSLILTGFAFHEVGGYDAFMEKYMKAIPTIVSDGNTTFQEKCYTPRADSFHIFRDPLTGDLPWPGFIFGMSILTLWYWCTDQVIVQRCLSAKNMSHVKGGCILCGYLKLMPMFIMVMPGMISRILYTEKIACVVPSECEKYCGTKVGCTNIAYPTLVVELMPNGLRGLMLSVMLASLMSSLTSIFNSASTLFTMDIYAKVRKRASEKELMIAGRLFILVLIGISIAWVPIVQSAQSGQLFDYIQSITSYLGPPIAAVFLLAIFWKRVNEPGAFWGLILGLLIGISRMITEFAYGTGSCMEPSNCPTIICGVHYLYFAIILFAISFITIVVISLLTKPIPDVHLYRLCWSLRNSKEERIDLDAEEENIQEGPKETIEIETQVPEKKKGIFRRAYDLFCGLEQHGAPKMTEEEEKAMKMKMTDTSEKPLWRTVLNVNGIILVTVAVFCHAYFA
Test: SGLT1 in vitro assay: Na-dependent 14C-AMG uptake in CHO-K1 cells stably expressing human SGLT1
Type: cell-based
Conditions: @ 0.3 μM; CHO-K1 cells stably expressing human SGLT1; 14C-AMG uptake
outcome-measure: SGLT1 % Inh @ 0.3 μM (%)

[
  {
    "compound-structure-string": "COC(=O)N1CCc2sc(Cc3cc([C@@H]4O[C@H](CO)C(F)(F)[C@H](O)[C@H]4O)c(OC)cc3OC)cc2C1",
    "numeric-value": 15.5
  },
  {
    "compound-structure-string": "OC[C@H]1O[C@@H](c2cc(Cc3ccc4c(c3)CCO4)c(Cl)c3c2OCC3)[C@H](O)[C@@H](O)C1(F)F",
    "numeric-value": 36.8
  },
  {
    "compound-structure-string": "OC[C@H]1O[C@@H](c2cc(Cc3ccc4c(c3)CCCO4)c(Cl)c3c2OCC3)[C@H](O)[C@@H](O)C1(F)F",
    "numeric-value": 28.7
  },
  {
    "compound-structure-string": "Cc1c(Cc2ccc3c(c2)CCCO3)cc([C@@H]2O[C@H](CO)C(F)(F)[C@H](O)[C@H]2O)c2c1CCO2",
    "numeric-value": 26.3
  },
  {
    "compound-structure-string": "COc1cc(OC)c([C@@H]2O[C@H](CO)C(F)(F)[C@H](O)[C@H]2O)cc1Cc1ccc(C2CC2)cc1",
    "numeric-value": 30.6
  }
]

[P] COc1cc(C#N)c(Cc2ccc(C3CC3)cc2)cc1[C@@H]1O[C@H](CO)C(F)(F)[C@H](O)[C@H]1O
[Q] CCc1ccc(Cc2cc([C@@H]3O[C@H](CO)C(F)(F)[C@H](O)[C@H]3O)c(O)cc2C2CC2)cc1
Of P and Q , whose reported SGLT1 % Inh @ 0.3 μM is the larger number? Your choice should be expressed through its label. Q
(Q: 50.4%, P: 12.1%)
